- Tested on: RARa homodimer (NR concentration 270 nM)
- test name: PBM binding z-score (relative to random genomic background probes); higher = stronger binding; sequences stand for … in GC…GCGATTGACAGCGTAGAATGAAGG
property name: PBM binding z-score

Worked set:
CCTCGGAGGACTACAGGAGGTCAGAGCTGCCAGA: -0.496
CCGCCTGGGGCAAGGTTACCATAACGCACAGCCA: -0.239
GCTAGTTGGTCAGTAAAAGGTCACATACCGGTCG: 3.62
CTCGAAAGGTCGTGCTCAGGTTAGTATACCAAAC: 0.346
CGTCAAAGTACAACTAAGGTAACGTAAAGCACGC: 0.546

Query: Report measured PBM binding z-score; entry is `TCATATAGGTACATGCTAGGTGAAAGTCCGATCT`
Response: 0.997

Query: Note down PBM binding z-score recorded for `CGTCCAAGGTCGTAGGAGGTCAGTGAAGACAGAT`
Response: 0.332

Query: Dear colleague, please send me the reported PBM binding z-score for `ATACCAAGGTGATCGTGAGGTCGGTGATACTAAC` when you can.
Response: 0.866

Query: Input `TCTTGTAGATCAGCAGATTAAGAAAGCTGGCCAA` , output reported PBM binding z-score.
Response: 0.205

Query: Given `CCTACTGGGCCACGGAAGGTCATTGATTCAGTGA` , respond with its PBM binding z-score.
Response: 0.0822

Query: Complete the entry with PBM binding z-score for `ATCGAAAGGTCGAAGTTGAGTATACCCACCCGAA`
Response: 0.0634

Query: Give the value of PBM binding z-score reported for the following: `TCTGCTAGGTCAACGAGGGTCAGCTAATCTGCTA`
Response: -0.252

Query: Supply PBM binding z-score value. Item: `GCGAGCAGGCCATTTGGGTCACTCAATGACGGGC`
Response: -0.309
